# procedure_summary: viability loss in pontine glioma line – cell-based, SU-DIPG-XIII, MIPE4.0, CellTiter-Glo, qHTS, dose response (AID 1347061);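 also: cells exposed to compound for 48 hours before readout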
# test_context: CellTiter-Glo ATP luminescence
Results filed as inconclusive are left out. Activity calls are given as the source filed them. The limit is not given here; nearly all actives have AC50 up to about 37 µM.
Tick one outcome: yes (1) (active), no (0) (inactive)

Example results:
O=C(CCN1CCN(C(=O)OCc2cc(Cl)cc(Cl)c2)CC1)c1ccc2[nH]c(=O)oc2c1 : no (0)
Cc1c[nH]c(/C=C2\C(=O)Nc3ccccc32)c1CCC(=O)O : yes (1)
C=C(C)[C@@H]1CC[C@]2(C)CC[C@]3(C)[C@H](CC[C@@H]4[C@@]5(C)CC[C@H](O)C(C)(C)[C@@H]5CC[C@]43C)[C@@H]12 : no (0)

[Q] Entry "O=C(c1ccc(F)c(F)c1Nc1ccc(I)cc1F)N1CC(O)([C@@H]2CCCCN2)C1" : call = ?
[A] yes (1)

[Q] Entry "CCn1c(-c2nonc2N)nc2cncc(CNC3CCNCC3)c21" : call = ?
[A] no (0)

[Q] Entry "NC(=O)c1c(OCc2c(F)cc(Br)cc2F)nsc1NC(=O)NCCCCN1CCCC1" : call = ?
[A] yes (1)

[Q] Entry "O=C(O)c1cc(O)c2c(c1)C(=O)c1cccc(O)c1C2=O" : call = ?
[A] no (0)

* * *

# procedure_summary: viability loss in pontine glioma line – cell-based, SU-DIPG-XVII, MIPE5.0, CellTiter-Glo, qHTS, dose response (AID 1347060);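 as to AC50: cells exposed to compound for 48 hours before viability readout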
# test_context: CellTiter-Glo ATP luminescence
Records with an inconclusive call do not appear. Calls of active or inactive are those of the source. No cut-off is given here; in the data, nearly all actives have AC50 up to about 26 µM.
Tick one outcome: active, inactive

Example results:
O=C(CCCc1ccc2cccnc2n1)NCc1cc(-c2ccc(F)c(C(F)(F)F)c2)no1 : inactive
COC1=C2C[C@H](C)C[C@H](OC)[C@H](O)[C@@H](C)/C=C(/C)[C@H](OC(N)=O)[C@@H](OC)/C=C\C=C(\C)C(=O)NC(=CC1=O)C2=O : active
Cc1cn(CCN2CCN(c3ccccc3-c3cc(C#N)cc(C(=O)NCCCN4CCCC4)c3)CC2)c2ccccc12 : active
CCOC(=O)CCNc1cc(N2CCc3ccccc3CC2)nc(-c2ccccn2)n1 : active
OC1CCC(Nc2ncc3nc(Nc4c(F)cc(F)cc4F)n([C@@H]4CCOC4)c3n2)CC1 (stereo partly specified) : inactive

[Q] Entry "c1cc(-c2sc(-c3ccncc3)c(-c3ccncc3)c2-c2ccncc2)ccn1" : call = ?
[A] inactive

[Q] Entry COC1CCC(N(C(=O)C2CCC(C)CC2)c2cc(C3=CCCCC3)sc2C(=O)O)CC1 (stereo unspecified) : call = ?
[A] inactive

[Q] Entry "c1ccc2c(-c3cnn4cc(-c5ccc(N6CCNCC6)cc5)cnc34)ccnc2c1" : call = ?
[A] active

* * *

# procedure_summary: viability loss in pontine glioma line – cell-based, SU-DIPG-XIII, MIPE4.0, CellTiter-Glo, qHTS, dose response (AID 1347061);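 also: cells exposed to compound for 48 hours before readout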
# test_context: CellTiter-Glo ATP luminescence
Records with an inconclusive call do not appear. The source made the active and inactive calls. The limit is not given here; nearly all actives have AC50 up to about 37 µM.
Tick one outcome: active, inactive

Example results:
CNC1CCC(N(Cc2cccc(-c3ccncc3)c2)C(=O)c2sc3c(F)ccc(F)c3c2Cl)CC1 (stereo unspecified) : active
CC(=O)O[C@@]12CO[C@@H]1C[C@H](O)[C@@]1(C)C(=O)[C@H](O)C3=C(C)[C@@H](OC(=O)C(O)[C@@H](NC(=O)OC(C)(C)C)c4ccccc4)C[C@@](O)([C@@H](OC(=O)c4ccccc4)[C@H]21)C3(C)C (stereo partly specified) : inactive
COc1ncc(-c2ccc3nccc(-c4ccnnc4)c3c2)cc1NS(=O)(=O)c1ccc(F)cc1F : active

[Q] Entry "OCCCNc1cc(-c2ccnc(Nc3cccc(Cl)c3)n2)ccn1" : call = ?
[A] active

[Q] Entry "COC(=O)C1=CO[C@@H](O)[C@@H]2C(CO)=CC[C@H]12" : call = ?
[A] inactive

[Q] Entry "C/C=C/C[C@@H](C)C(=O)[C@H]1C(=O)N[C@@H](C(C)C)C(=O)N(C)CC(=O)N(C)[C@@H](CC(C)C)C(=O)N[C@@H](C(C)C)C(=O)N(C)[C@@H](CC(C)C)C(=O)N[C@@H](C)C(=O)N[C@H](C)C(=O)N(C)[C@@H](CC(C)C)C(=O)N(C)[C@@H](CC(C)C)C(=O)N(C)[C@@H](C(C)C)C(=O)N1C" : call = ?
[A] active

* * *

# procedure_summary: viability loss in pontine glioma line – cell-based, JHH-DIPG-1, MIPE4.0, CellTiter-Glo, qHTS, dose response (AID 1347062);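 as to AC50: cells exposed to compound for two days before readout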
# test_context: JHH-DIPG-1 viability, CellTiter-Glo ATP luminescence
Records with an inconclusive call do not appear. Active and inactive are the calls of the source. The limit is not given here; nearly all actives have AC50 up to about 27 µM.
attribute_measured: AC50

Below are worked cases with known answers.
N[C@@]1(C(=O)O)CS(=O)(=O)[C@H]2[C@H](C(=O)O)[C@H]21 : inactive
OC[C@H]1O[C@@H](n2cnc3c2NC=NC[C@H]3O)C[C@@H]1O : inactive
COc1cc(O)c2c(c1)C1OC1C[C@H](O)[C@H](O)C(=O)/C=C\C[C@H](C)OC2=O (some centres undefined) : 5.9 µM (active)
CC1(COc2ccc3c(c2)ncn3-c2ccc3cccc(N4CCC(N)CC4)c3n2)COC1 : 0.332 µM (active)

Consider "CC(=O)OCC(=O)[C@@]1(O)[C@H](C)C[C@H]2[C@@H]3C=C(C)C4=Cc5c(cnn5-c5ccccc5)C[C@]4(C)[C@H]3[C@@H](O)C[C@@]21C" . Its measured AC50 is 9.35 µM (active)

Consider "O=C(c1ccc(F)cc1)N1CCC[C@H](c2nc(-c3ccc(F)cc3)no2)C1" . Its measured AC50 is inactive

Consider "O=C(O)c1ccc2c(c1)nc(Nc1cccc(Cl)c1)c1ccncc12" . Its measured AC50 is 16.6 µM (active)

Consider "CC1(C)Cc2c(-c3ccccc3)c(-c3ccc(Cl)cc3)c(CC(=O)O)n2C1" . Its measured AC50 is inactive

Consider "Cc1cc(OCCCS(C)(=O)=O)cc(C)c1-c1cccc(COc2ccc3c(c2)OC[C@H]3CC(=O)O)c1" . Its measured AC50 is inactive

* * *

# procedure_summary: RCMB18 cell growth, single agent and combined, cisplatin and BGB IC40 combos (AID 1671462);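 also: cells exposed to compound for four days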
# test_context: RCMB18 medulloblastoma cells, measured here: BGB IC40 combination, at 0.05 µM, stronger effect = higher value
attribute_measured: inhibition (%)
Write down the numeric answer in % and omit the unit.

Below are worked cases with known answers.
CN(C)c1ccc(C(=O)NCCCCCCC(=O)NO)cc1 : -8.02
COc1ccc(C(=O)CC2(O)C(=O)Nc3c(Cl)ccc(Cl)c32)cc1 (stereo unspecified) : -41.1
O=C(COc1cccc2c(=O)[nH]ccc12)c1ccccc1 : -14.7
O=C(/C=C/c1cccc(S(=O)(=O)Nc2ccccc2)c1)NO : -15.7
CN(C)CCN1C(=O)c2cccc3cc(N)cc(c23)C1=O : -28.2
COc1cc(C=O)c([N+](=O)[O-])cc1OC : 1.84
NCCOc1cc(C(=O)Nc2cc(OCCN)c3ccccc3n2)nc(C(=O)Nc2cc(OCCN)c3ccccc3n2)c1 : -9.5
CN[C@@H]1CN(c2ccc3c(=O)c(C(=O)O)cn(-c4nccs4)c3n2)C[C@H]1OC : -18.9
CC(=O)Nc1ccc(C(=O)Nc2ccccc2N)cc1 : -4.7
O=c1cc(N2CCOCC2)oc2c(-c3cccc4c3sc3ccccc34)cccc12 : -8.83

Then there is this compound:
Consider "C=C1[C@H](CO)[C@@H](O)C[C@@H]1n1cnc2c(=O)[nH]c(N)nc21" . Its measured inhibition is -6.21

* * *

// values below are reported cell count
# procedure_summary: viability loss with induced miR-34 in A549 – imaging, A549 dox-inducible miR-34, nuclei and caspase counts, primary screen (AID 1347080)
# test_context: A549 miR-34 inducible, Hoechst nuclei count, 48 h; measured here: total cells without miR-34 induction
Form rule: numeric answer, no unit written next to it.

Below are worked cases with known answers.
CCCCC/C=C\C/C=C\CC/C=C\CCCC(=O)OCC : 5390
CC(C)C1C2CCC(C2)C1N (stereo not given) : 9620
CCCCC[C@H](O)/C=C/[C@@H]1[C@H](C/C=C\CCCC(=O)NCCO)[C@@H](O)C[C@H]1O : 5790
CC(N)(C(=O)O)c1ccc(-c2nn[nH]n2)cc1 (stereo not given) : 8980
C/C(O)=C1/C(=O)[C@@H]2[C@H]3c4c[nH]c5cccc(c45)C[C@H]3C(C)(C)N2C1=O : 6130
Cc1c(F)cc(C(=O)NC2CC2)cc1-c1ccc(C(=O)NCC(C)(C)C)cn1 : 8890

Consider "CCCCC/C=C\C/C=C\C/C=C\CCCCC(=O)OC" . Its measured cell count is 6530

Consider "CC/C=C/C[C@H](O)/C=C/[C@H]1[C@H](O)CC(=O)[C@@H]1C/C=C\CCCC(=O)O" . Its measured cell count is 6230

Consider "O=C(O)CCC/C=C\C[C@H]1[C@@H](O)CC(=O)[C@@H]1/C=C/[C@@H](O)COc1cccc(C(F)(F)F)c1" . Its measured cell count is 6490

Consider "CC1(C)C(=O)N(CCN2CCC(C(=O)c3ccc(F)cc3)CC2)c2ccccc21" . Its measured cell count is 7530

The measurements presented in this section are drawn from PubChem BioAssay.
